# Tested on: Mus musculus
# experiment: In vivo euglycemic activity (administered by oral gavage) in C57/6J-ob/ob mice by normalization of blood glucose levels at a dose of 1 mg/kg.
# Format: functional
assayReadout: Normalization (%)
Reply with just the number (in %).

{"molecule": "Cc1oc(-c2ccc(Cl)cc2)nc1CCC(=O)c1ccc(CC2SC(=O)NC2=O)s1 (centres undefined)", "unitDescriptor": "%", "Normalization": 51}
{"molecule": "Cc1ccc(-c2nc(CCC(=O)c3ccc(/C=C4\\SC(=O)NC4=O)cc3)c(C)o2)o1", "unitDescriptor": "%", "Normalization": 76}
{"molecule": "COc1ccc(-c2nc(CCC(=O)c3ccc(CC4SC(=O)NC4=O)cc3)c(C)o2)cc1 (centres undefined)", "unitDescriptor": "%", "Normalization": 95}

Note down Normalization recorded for Cc1ccc(-c2nc(CCC(=O)c3ccc(CC4SC(=O)NC4=O)s3)co2)cc1 (centres undefined) 10

Note down Normalization recorded for Cc1oc(-c2ccccc2)nc1CCC(=O)c1ccc(CC2SC(=O)NC2=O)cc1 (centres undefined) 100

Note down Normalization recorded for Cc1oc(-c2ccccc2)nc1CC/C(=N\O)c1ccc(CC2SC(=O)NC2=O)cc1 (centres undefined) 99

Note down Normalization recorded for "Cc1oc(-c2cccs2)nc1CCC(=O)c1ccc(/C=C2\SC(=O)NC2=O)cc1" 100

Note down Normalization recorded for Cc1ccc(-c2nc(CCC(=O)c3ccc(CC4SC(=O)NC4=O)s3)c(C)o2)cc1 (centres undefined) 100

Note down Normalization recorded for "Cc1oc(-c2ccc3ccccc3c2)nc1CCC(=O)c1ccc(/C=C2\SC(=O)NC2=O)cc1" 90
